In this section, each of the molecules is paired with its reported antifungal MICc.
Tested on: Nannizzia nana
ASSAY NOTES: checkerboard drug interaction (FICI, MICc);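 also: simplified diagonal checkerboard screen pairing antifungals with FPPS inhibitors, FICI calculated under the Loewe additivity model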
Assay type: cell-based
TEST CONDITIONS: in combination with ZOL
The response must contain the number and no unit.

Use these answered entries as a reference point.
Nc1nc(=O)[nH]cc1F [5FC, 5-flucytosine] | 64
C[C@@H]1[C@H](O)[C@@H](C)/C=C/C=C/C=C/C=C/C=C/C=C/C=C/[C@H](O[C@@H]2O[C@H](C)[C@@H](O)[C@H](N)[C@@H]2O)C[C@@H]2O[C@](O)(C[C@@H](O)C[C@@H](O)[C@H](O)CC[C@@H](O)C[C@@H](O)CC(=O)O[C@H]1C)C[C@H](O)[C@H]2C(=O)O [AMB, amphotericin B] | 0.25
OC(Cn1cncn1)(Cn1cncn1)c1ccc(F)cc1F [FLC, fluconazole] | 8

Attention now turns to another entry.
Query block: Bench note: what antifungal MICc did CCC(C)n1ncn(-c2ccc(N3CCN(c4ccc(OCC5COC(Cn6cncn6)(c6ccc(Cl)cc6Cl)O5)cc4)CC3)cc2)c1=O (stereo not shown) [ITR, itraconazole] show?
Result block: 0.13
